// data source = patent US20230110188A1

- tgt: T1, Mouse MuSK as it stands on mouse muscle (neuromuscular junctions, C2C12 myotubes) (mouse, UniProt Q61006 22-868)
- T1 sequence (looked up): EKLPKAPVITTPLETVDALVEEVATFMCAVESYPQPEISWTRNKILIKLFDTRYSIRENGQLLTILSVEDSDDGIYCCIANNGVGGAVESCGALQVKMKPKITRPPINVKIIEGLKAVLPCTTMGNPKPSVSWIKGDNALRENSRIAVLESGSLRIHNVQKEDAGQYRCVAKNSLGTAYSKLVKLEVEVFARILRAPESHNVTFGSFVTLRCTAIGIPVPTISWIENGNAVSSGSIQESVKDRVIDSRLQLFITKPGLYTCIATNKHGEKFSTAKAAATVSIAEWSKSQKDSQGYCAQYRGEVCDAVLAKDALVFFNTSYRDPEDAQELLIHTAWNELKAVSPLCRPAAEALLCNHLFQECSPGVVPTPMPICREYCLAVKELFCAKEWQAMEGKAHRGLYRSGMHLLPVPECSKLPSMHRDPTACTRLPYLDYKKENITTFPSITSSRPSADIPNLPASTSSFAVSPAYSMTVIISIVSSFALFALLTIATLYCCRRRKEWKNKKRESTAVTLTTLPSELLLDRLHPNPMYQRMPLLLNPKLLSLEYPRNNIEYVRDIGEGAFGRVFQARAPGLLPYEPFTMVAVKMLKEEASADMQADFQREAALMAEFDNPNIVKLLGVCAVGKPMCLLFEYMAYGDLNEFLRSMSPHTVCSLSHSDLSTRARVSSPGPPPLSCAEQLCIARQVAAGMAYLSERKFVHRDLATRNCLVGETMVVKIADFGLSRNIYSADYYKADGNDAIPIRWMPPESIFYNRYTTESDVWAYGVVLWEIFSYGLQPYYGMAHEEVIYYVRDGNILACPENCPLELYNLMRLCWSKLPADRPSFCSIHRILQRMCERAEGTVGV
- assay info: cell-based or functional assay
readout label: AChR clusters larger or equal to 3 µm compared to agrin; Exp 3, batch UPX

[Q] Endpoint output: AChR clusters larger or equal to 3 µm compared to agrin; Exp 3, batch UPX of 4D3 (antibody, human IgG1, kappa, L234A L235A, V domains shown) VH: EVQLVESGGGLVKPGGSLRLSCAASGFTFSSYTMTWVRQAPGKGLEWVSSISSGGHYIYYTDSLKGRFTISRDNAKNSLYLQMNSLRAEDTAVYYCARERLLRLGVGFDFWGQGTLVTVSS VL: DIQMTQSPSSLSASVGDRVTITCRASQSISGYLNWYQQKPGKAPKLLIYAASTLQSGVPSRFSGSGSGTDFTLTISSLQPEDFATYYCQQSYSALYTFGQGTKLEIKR . Value?
[A] 72 % of agrin
